# maps each entry to its % activity
- Experimental target: TrkA(h) (Homo sapiens, UniProt P04629)
- Sequence (P04629 33-796): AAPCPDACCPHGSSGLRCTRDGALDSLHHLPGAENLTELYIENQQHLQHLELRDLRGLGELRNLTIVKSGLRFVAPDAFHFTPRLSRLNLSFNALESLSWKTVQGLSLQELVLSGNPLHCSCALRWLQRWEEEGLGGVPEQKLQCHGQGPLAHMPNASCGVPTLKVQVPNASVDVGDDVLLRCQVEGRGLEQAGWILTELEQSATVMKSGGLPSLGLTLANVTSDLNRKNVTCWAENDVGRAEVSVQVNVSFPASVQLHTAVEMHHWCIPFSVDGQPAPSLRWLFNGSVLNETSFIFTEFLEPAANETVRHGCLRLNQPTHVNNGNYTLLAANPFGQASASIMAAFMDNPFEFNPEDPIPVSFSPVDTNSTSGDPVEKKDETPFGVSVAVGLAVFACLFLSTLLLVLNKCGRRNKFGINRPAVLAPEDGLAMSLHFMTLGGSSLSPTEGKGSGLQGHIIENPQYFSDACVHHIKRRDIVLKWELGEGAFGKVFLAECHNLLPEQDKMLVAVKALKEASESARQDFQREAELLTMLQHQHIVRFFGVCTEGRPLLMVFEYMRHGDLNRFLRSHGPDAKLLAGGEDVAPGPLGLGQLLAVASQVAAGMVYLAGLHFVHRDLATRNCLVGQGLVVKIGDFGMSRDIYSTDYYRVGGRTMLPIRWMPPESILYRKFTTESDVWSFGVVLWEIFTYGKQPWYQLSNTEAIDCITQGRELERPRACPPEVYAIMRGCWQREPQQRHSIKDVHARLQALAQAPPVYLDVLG
- Assay details: Kinase Profiling Assay
- Format: biochemical
- Condition notes: peptide 100 μM
No end group written: not given here.
Measurement type: % activity

{"columns": ["Chain", "Experimental target", "Measurement"],
 "data": [
  ["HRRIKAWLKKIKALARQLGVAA (Mammal) [MMI-0500]", "TrkA(h) (Homo sapiens, UniProt P04629)", "24%"],
  ["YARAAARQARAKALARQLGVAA [MMI-0100]", "TrkA(h) (Homo sapiens, UniProt P04629)", "74%"],
  ["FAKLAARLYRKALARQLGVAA [MMI-0300]", "TrkA(h) (Homo sapiens, UniProt P04629)", "25%"],
  ["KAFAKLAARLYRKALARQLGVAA [MMI-0400]", "TrkA(h) (Homo sapiens, UniProt P04629)", "17%"]
]}

----------
- Experimental target: ASK1(h) (Homo sapiens)
- Sequence (Q99683 1-1374): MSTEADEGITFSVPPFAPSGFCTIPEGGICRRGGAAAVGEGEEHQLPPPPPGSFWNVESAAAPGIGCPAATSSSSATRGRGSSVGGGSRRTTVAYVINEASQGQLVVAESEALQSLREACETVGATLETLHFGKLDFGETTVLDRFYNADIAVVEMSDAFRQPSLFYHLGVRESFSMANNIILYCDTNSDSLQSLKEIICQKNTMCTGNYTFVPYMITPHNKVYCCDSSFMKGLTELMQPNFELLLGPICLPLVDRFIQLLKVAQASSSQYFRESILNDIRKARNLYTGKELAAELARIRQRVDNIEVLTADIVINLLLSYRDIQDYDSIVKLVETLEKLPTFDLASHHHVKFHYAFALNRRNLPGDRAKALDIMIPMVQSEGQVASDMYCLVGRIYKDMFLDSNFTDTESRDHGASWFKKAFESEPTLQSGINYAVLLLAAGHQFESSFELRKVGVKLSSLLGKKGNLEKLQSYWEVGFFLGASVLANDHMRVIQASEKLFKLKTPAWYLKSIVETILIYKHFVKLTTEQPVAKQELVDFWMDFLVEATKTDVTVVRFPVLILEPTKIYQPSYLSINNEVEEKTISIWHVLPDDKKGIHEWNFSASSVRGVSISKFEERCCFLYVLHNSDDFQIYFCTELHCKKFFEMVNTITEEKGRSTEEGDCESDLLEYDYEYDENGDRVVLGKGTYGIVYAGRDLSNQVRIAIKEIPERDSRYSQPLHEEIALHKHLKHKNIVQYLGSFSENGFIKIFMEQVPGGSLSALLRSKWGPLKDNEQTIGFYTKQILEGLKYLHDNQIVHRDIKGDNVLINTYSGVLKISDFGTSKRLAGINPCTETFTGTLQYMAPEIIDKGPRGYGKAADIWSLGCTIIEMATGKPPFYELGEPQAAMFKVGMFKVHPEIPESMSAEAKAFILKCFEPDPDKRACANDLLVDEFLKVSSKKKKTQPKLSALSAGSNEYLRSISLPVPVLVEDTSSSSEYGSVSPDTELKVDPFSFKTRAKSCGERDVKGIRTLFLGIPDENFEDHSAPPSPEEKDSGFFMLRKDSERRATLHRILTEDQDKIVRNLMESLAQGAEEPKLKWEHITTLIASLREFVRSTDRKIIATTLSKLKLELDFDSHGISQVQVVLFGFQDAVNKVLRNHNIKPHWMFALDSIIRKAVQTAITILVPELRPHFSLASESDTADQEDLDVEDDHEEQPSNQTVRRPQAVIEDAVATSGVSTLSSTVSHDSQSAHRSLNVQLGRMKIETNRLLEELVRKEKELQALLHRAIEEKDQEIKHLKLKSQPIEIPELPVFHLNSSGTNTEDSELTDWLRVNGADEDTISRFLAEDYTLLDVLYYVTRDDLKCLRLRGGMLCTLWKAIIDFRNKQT
- Assay details: Kinase Profiling Assay
- Type: biochemical
- Condition notes: peptide 100 μM
Measurement type: % activity (%)

{"columns": ["Chain", "Experimental target", "Measurement type", "Measurement"],
 "data": [
  ["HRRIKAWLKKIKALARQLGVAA (Mammal) [MMI-0500]", "ASK1(h) (Homo sapiens)", "% activity", -4],
  ["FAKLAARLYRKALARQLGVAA [MMI-0300]", "ASK1(h) (Homo sapiens)", "% activity", 80],
  ["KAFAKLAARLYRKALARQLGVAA [MMI-0400]", "ASK1(h) (Homo sapiens)", "% activity", 69],
  ["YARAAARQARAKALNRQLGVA (Mammal) [MMI-0200]", "ASK1(h) (Homo sapiens)", "% activity", 101]
]}

----------
- Experimental target: JNK3(h) (Homo sapiens)
- Construct: purchased Millipore
- Sequence (P53779 whole entry): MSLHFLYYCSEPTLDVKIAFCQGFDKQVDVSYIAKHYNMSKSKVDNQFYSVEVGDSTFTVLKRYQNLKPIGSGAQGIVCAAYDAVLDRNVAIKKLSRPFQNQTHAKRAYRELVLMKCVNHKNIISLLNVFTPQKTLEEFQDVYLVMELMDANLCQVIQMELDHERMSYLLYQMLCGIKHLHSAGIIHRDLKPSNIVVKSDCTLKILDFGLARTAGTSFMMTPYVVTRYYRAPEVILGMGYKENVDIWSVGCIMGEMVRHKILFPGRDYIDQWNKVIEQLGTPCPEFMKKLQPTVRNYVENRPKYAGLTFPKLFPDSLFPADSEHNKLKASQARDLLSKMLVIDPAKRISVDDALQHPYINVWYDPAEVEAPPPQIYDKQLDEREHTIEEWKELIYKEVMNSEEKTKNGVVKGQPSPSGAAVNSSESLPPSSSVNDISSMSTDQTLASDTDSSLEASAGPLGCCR
- Assay details: Kinase Profiling Assay
- Assay type: biochemical
- Condition notes: peptide 100 μM
# maps each entry to its % activity

{"columns": ["Chain", "Unit", "% activity"],
 "data": [
  ["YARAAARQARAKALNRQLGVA (Mammal) [MMI-0200]", "%", 90],
  ["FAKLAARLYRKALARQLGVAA [MMI-0300]", "%", 89],
  ["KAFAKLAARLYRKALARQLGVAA [MMI-0400]", "%", 70],
  ["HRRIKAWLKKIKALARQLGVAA (Mammal) [MMI-0500]", "%", 171]
]}

----------
- Experimental target: Tec(h) activated (Homo sapiens, UniProt P42680)
- Construct: purchased Millipore
- Sequence (P42680 1-631): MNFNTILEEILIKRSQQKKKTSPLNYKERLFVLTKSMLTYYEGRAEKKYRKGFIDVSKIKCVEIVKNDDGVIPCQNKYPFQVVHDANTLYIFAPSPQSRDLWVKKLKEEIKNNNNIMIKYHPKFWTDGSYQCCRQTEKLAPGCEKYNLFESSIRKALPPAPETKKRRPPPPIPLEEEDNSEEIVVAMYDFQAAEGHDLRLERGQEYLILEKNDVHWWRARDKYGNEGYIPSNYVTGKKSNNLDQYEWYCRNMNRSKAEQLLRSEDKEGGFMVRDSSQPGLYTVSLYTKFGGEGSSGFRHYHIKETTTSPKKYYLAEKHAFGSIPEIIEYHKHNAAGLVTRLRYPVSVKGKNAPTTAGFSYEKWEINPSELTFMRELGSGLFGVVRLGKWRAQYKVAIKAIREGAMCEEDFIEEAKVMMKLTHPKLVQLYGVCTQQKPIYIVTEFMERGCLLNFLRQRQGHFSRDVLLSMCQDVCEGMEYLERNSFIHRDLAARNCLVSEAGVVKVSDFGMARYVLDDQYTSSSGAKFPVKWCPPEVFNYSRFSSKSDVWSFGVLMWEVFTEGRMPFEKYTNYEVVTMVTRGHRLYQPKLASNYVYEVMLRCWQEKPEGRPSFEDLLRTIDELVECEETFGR
- Assay details: Kinase Profiling Assay
- Type: biochemical
- Condition notes: peptide 100 μM
No end group written: not given here.
% activity under 30% gets Criterion met, anything at or over 30% gets Criterion not met.

{"columns": ["Chain", "Assigned category"],
 "data": [
  ["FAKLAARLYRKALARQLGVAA [MMI-0300]", "Criterion not met"],
  ["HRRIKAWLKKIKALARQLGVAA (Mammal) [MMI-0500]", "Criterion not met"],
  ["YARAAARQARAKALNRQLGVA (Mammal) [MMI-0200]", "Criterion not met"],
  ["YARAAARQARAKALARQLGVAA [MMI-0100]", "Criterion not met"],
  ["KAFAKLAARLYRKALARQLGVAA [MMI-0400]", "Criterion met"]
]}

----------
# maps each entry to its % activity
- Experimental target: GRK7(h) (Homo sapiens)
- Construct: purchased Millipore
- Sequence (Q8WTQ7 1-553): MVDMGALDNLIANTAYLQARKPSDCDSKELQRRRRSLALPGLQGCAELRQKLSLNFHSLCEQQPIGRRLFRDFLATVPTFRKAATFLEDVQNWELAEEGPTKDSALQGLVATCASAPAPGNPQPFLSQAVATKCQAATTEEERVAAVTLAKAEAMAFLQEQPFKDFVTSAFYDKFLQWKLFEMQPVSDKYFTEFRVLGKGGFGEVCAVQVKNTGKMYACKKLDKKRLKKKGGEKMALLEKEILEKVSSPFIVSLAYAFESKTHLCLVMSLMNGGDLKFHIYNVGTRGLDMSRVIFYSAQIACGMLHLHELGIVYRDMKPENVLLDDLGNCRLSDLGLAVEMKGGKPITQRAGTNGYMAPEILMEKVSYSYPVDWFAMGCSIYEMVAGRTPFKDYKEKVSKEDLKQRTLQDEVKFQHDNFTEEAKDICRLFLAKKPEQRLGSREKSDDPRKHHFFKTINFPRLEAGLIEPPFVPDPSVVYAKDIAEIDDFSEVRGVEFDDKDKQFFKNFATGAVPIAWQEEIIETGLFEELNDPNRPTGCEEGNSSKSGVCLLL
- Assay details: Kinase Profiling Assay
- Type: biochemical
- Condition notes: peptide 100 μM

{"columns": ["Chain", "% activity, %"],
 "data": [
  ["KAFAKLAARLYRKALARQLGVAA [MMI-0400]", 100],
  ["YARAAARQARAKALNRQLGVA (Mammal) [MMI-0200]", 124],
  ["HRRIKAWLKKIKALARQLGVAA (Mammal) [MMI-0500]", 93],
  ["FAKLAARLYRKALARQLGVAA [MMI-0300]", 122]
]}
